tgt: EBP (Homo sapiens, UniProt Q15125)
Construct: HEK293T cells were utilized as the source of EBP enzyme; endogenous in cells; host or cells: HEK293T
Sequence (Q15125 whole entry): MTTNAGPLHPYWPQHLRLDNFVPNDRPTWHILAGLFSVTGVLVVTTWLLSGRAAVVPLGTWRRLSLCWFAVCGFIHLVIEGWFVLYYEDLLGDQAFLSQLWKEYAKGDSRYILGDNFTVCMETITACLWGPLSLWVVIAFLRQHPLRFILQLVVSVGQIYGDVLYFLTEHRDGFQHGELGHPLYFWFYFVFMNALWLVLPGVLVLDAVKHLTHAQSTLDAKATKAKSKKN
experiment notes: EBP Functional Assay (EBP immunoaffinity LC-MS assay)
Assay type: biochemical

molecule: CC(C)c1cc(S(=O)(=O)N2CC3(CC(N4CCOCC4)C3)C2)n(C)n1
IC50: < 100 nM
//
molecule: COc1ccc(S(=O)(=O)N2CC3(CCC(N4CCOCC4)C3)C2)c(C(F)(F)F)n1 (centres unmarked)
IC50: < 100 nM
//
molecule: Cc1cc(C(F)(F)F)ncc1S(=O)(=O)N1CC2(CCC(N3CCOCC3)C2)C1 (centres unmarked)
IC50: 100 to 500 nM
//
molecule: Cc1nc(C(F)(F)F)ccc1S(=O)(=O)N1CC2(CC(N3CC4(CCO4)C3)C2)C1
IC50: 500 to 3000 nM
//
molecule: Cc1nc(C(F)(F)F)ccc1S(=O)(=O)N1CC2(CCC(N3CCOCC3)C2)C1 (centres unmarked)
IC50: < 100 nM
//
molecule: Cc1nc(C(C)(F)F)ccc1S(=O)(=O)N1CC2(CC(N3CC4(CCO4)C3)C2)C1
IC50: 500 to 3000 nM
//
molecule: Cc1nc(C(F)(F)F)ncc1S(=O)(=O)N1CC2(CC(N3CC4(COC4)C3)C2)C1
IC50: > 3000 nM
//
molecule: Cc1cc(S(=O)(=O)N2CC3(CCC(N4CCOCC4)C3)C2)n(C)n1 (centres unmarked)
IC50: 100 to 500 nM

---

Below, each of the molecules is paired with its reported pIC50 value.
tgt: EBP (Homo sapiens, UniProt Q15125)
Construct: HEK293T cells were utilized as the source of EBP enzyme; endogenous in cells; host or cells: HEK293T
experiment notes: EBP Functional Assay (EBP immunoaffinity LC-MS assay)
Format: biochemical
details: HEK293T cells as source of EBP enzyme; zymosterol-d5 substrate; inhibitor 30 min, then 37 °C for 4 h; percent conversion to dehydrolathosterol-d5 by LC-APCI MRM MS; read-out: EBP Functional Assay
pIC50: −log10 of the molar value.

molecule: Cn1nc(C(F)(F)F)cc1S(=O)(=O)N1CC2(CC(NC3COC3)C2)C1
tgt: EBP (Homo sapiens, UniProt Q15125)
pIC50: 5.52 to 6.30

molecule: COc1ncc(C)cc1S(=O)(=O)N1CC2(CC(NC3CCC(F)(F)CC3)CO2)C1 (stereo not shown)
tgt: EBP (Homo sapiens, UniProt Q15125)
pIC50: 6.30 to 7.00

molecule: COc1ccc(S(=O)(=O)N2CC3(CCC(N4CC5(COC5)C4)C3)C2)c(C)n1 (stereo not shown)
tgt: EBP (Homo sapiens, UniProt Q15125)
pIC50: 5.52 to 6.30

molecule: COc1ccc(S(=O)(=O)N2CC3(CCC(NC4CCC(F)(F)CC4)C3)C2)c(C)n1 (stereo not shown)
tgt: EBP (Homo sapiens, UniProt Q15125)
pIC50: 6.30 to 7.00

molecule: Cc1cc(S(=O)(=O)N2CC3(CC[C@H](N4CCOCC4)C3)C2)n(C)n1 (single isomer, unassigned)
tgt: EBP (Homo sapiens, UniProt Q15125)
pIC50: 5.52 to 6.30

molecule: Cc1nc(C(C)(F)F)ccc1S(=O)(=O)N1CC2(CC(NC3COC3)C2)C1
tgt: EBP (Homo sapiens, UniProt Q15125)
pIC50: 5.52 to 6.30

molecule: Cc1nc(C(F)(F)F)ncc1S(=O)(=O)N1CC2(CC(N3CC4(CCO4)C3)C2)C1
tgt: EBP (Homo sapiens, UniProt Q15125)
pIC50: 5.52 to 6.30

molecule: Cc1cc(C(F)(F)F)ncc1S(=O)(=O)N1CC2(CC[C@H](N3CCOCC3)C2)C1 (single isomer, unassigned)
tgt: EBP (Homo sapiens, UniProt Q15125)
pIC50: 6.30 to 7.00

molecule: COc1ncc(C)cc1S(=O)(=O)N1CC2(CC(N3CC(OC)C3)CO2)C1 (stereo not shown)
tgt: EBP (Homo sapiens, UniProt Q15125)
pIC50: 5.52 to 6.30

molecule: Cc1nc(Cl)ccc1S(=O)(=O)N1CC2(CC[C@@H](N3CCOCC3)C2)C1 (single isomer, unassigned)
tgt: EBP (Homo sapiens, UniProt Q15125)
pIC50: > 7.00

molecule: Cn1nc(C(F)(F)F)cc1S(=O)(=O)N1CC2(CC[C@H](N3CCOCC3)C2)C1
tgt: EBP (Homo sapiens, UniProt Q15125)
pIC50: 6.30 to 7.00

molecule: Cc1nc(C(F)(F)F)ncc1S(=O)(=O)N1CC2(CC(N(C)C3COC3)C2)C1
tgt: EBP (Homo sapiens, UniProt Q15125)
pIC50: 6.30 to 7.00

molecule: Cn1nc(C(F)(F)F)cc1S(=O)(=O)N1CC2(CC(NCC3(C)COC3)C2)C1
tgt: EBP (Homo sapiens, UniProt Q15125)
pIC50: > 7.00

molecule: Cn1nc(C(F)(F)F)cc1S(=O)(=O)N1CC2(CCC(N3CCOCC3)C2)C1 (stereo not shown)
tgt: EBP (Homo sapiens, UniProt Q15125)
pIC50: 6.30 to 7.00

molecule: Cc1nc(C(C)(F)F)ccc1S(=O)(=O)N1CC2(CC(N3CC4(COC4)C3)C2)C1
tgt: EBP (Homo sapiens, UniProt Q15125)
pIC50: > 7.00

molecule: Cc1nc(C(C)(F)F)ccc1S(=O)(=O)N1CC2(CC(NCC3CCOCC3)C2)C1
tgt: EBP (Homo sapiens, UniProt Q15125)
pIC50: > 7.00

---

tgt: EBP (Homo sapiens)
Construct: HEK293T cells were utilized as the source of EBP enzyme; endogenous in cells; host or cells: HEK293T
experiment notes: EBP Functional Assay (EBP immunoaffinity LC-MS assay)
Format: biochemical
details: HEK293T cells as source of EBP enzyme; zymosterol-d5 substrate; inhibitor 30 min, then 37 °C for 4 h; percent conversion to dehydrolathosterol-d5 by LC-APCI MRM MS; read-out: EBP Functional Assay

compound: Cc1nc(C(C)(F)F)ccc1S(=O)(=O)N1CC2(CC(NC3CC4(COC4)C3)C2)C1 (stereo not drawn) [Example 70]
IC50: 100 to 500 nM
//
compound: Cc1nc(C(F)(F)F)ccc1S(=O)(=O)NC1CC2(C1)CN(C1CCOCC1)C2 [Example 18]
IC50: 500 to 3000 nM
//
compound: COc1ncc(C)cc1S(=O)(=O)N1CC2(CC(NC3CCOCC3)CO2)C1 (stereo not drawn) [Example 21]
IC50: 500 to 3000 nM
//
compound: Cc1nc(C(F)(F)F)ncc1S(=O)(=O)N1CC2(CC(N(C)CC3CCOCC3)C2)C1 [Example 83]
IC50: 100 to 500 nM
//
compound: N#Cc1ccc(F)c(S(=O)(=O)N2CC3(CC(NC4CCOCC4)CO3)C2)c1 (stereo not drawn) [Example 27]
IC50: 500 to 3000 nM
//
compound: Cc1nc(C(F)(F)F)ccc1S(=O)(=O)N1CC2(CC(NC3CCOCC3)C2)C1 [Example 3]
IC50: 100 to 500 nM
//
compound: CN(C1CCC(F)(F)CC1)C1COC2(C1)CN(S(=O)(=O)c1cc(C#N)ccc1F)C2 (stereo not drawn) [Example 59]
IC50: < 100 nM
//
compound: COc1ncc(C)cc1S(=O)(=O)N1CC2(CC(NC3CC(F)(F)C3)CO2)C1 (stereo not drawn) [Example 25]
IC50: 500 to 3000 nM
//
compound: Cc1nc(C(C)(F)F)ccc1S(=O)(=O)N1CC2(CC(NC3CCOCC3)C2)C1 [Example 2]
IC50: < 100 nM

---

tgt: EBP (Homo sapiens)
Construct: HEK293T cells were utilized as the source of EBP enzyme; endogenous in cells; host or cells: HEK293T
experiment notes: EBP Functional Assay (EBP immunoaffinity LC-MS assay)
Type: biochemical
details: HEK293T cells as source of EBP enzyme; zymosterol-d5 substrate; inhibitor 30 min, then 37 °C for 4 h; percent conversion to dehydrolathosterol-d5 by LC-APCI MRM MS; read-out: EBP Functional Assay
Method: The EBP immunoaffinity (IA) LC-MS assay measures the potency of small molecule inhibitors of EBP by quantifying their concentration-dependent changes in the enzyme's substrate and product using liquid chromatography atmospheric pressure chemical ionization multiple reaction monitoring mass spectrometry (LC-APCI MRM MS). HEK293T cells were utilized as the source of EBP enzyme. The enzyme was incubated with the small molecule inhibitors at variable concentrations for 30 min. […]
pIC50: −log10 of the molar value.
Below, each of the molecules is paired with its reported pIC50 value.

molecule: Cc1nc(Cl)ccc1S(=O)(=O)N1CC2(CC[C@H](N3CCOCC3)C2)C1 (single isomer, unassigned) [Example 65]
pIC50: 6.30 to 7.00
//
molecule: Cc1cc(C)c(S(=O)(=O)N2CC3(CCC(N4CCOCC4)C3)C2)c(C)c1 (stereo not shown) [Example 43]
pIC50: > 7.00
//
molecule: Cc1nc(C(C)(F)F)ccc1S(=O)(=O)N1CC2(CC(N(C)C3CCOCC3)C2)C1 [Example 72]
pIC50: > 7.00
//
molecule: COCCN(C)C1CCC2(C1)CN(S(=O)(=O)c1cc(C(F)(F)F)nn1C)C2 (stereo not shown) [Example 33]
pIC50: 5.52 to 6.30
